Value source: patent US12365687B2

biological target: human GABAA α1β2γ1 receptor (Homo sapiens (Human), UniProt P14867+Q8N1C3); assay: Radioligand binding assay for γ1-containing GABAA subtypes, [3H]RO7239181 competition (α1β2γ1)
// NB: equality with 20 nM counts as NO; only Ki strictly below is YES

structure_smiles_string=COC1CN(C(=O)c2nc3n(n2)-c2ccc(Cl)c(Cl)c2C(c2c(F)cccc2F)=N[C@H]3C)C1 study_system="human GABAA α1β2γ1 receptor (Homo sapiens (Human), UniProt P14867+Q8N1C3)" assigned_category=YES
structure_smiles_string=CCOC1CN(C(=O)c2nc3n(n2)-c2ccc(C(F)(F)F)c(Cl)c2C(c2ncccc2F)=N[C@H]3C)C1 study_system="human GABAA α1β2γ1 receptor (Homo sapiens (Human), UniProt P14867+Q8N1C3)" assigned_category=NO
structure_smiles_string=C[C@@H]1N=C(c2c(F)cccc2F)c2c(ccc(C(F)(F)F)c2Cl)-n2nc(C(=O)N3CC(O)C3)nc21 study_system="human GABAA α1β2γ1 receptor (Homo sapiens (Human), UniProt P14867+Q8N1C3)" assigned_category=NO
structure_smiles_string=COC1CN(C(=O)c2nc3n(n2)-c2ccc(C(F)(F)F)c(Cl)c2C(c2ncccc2F)=N[C@H]3C)C1 study_system="human GABAA α1β2γ1 receptor (Homo sapiens (Human), UniProt P14867+Q8N1C3)" assigned_category=NO
structure_smiles_string=COC1CN(C(=O)c2cn3c(n2)CN=C(c2ccccc2F)c2c-3ccc(Cl)c2Cl)C1 study_system="human GABAA α1β2γ1 receptor (Homo sapiens (Human), UniProt P14867+Q8N1C3)" assigned_category=NO
structure_smiles_string=C[C@@H]1N=C(c2c(F)cccc2F)c2c(ccc(C(F)(F)F)c2Cl)-n2nc(C(=O)N3CCS(=O)(=O)CC3)nc21 study_system="human GABAA α1β2γ1 receptor (Homo sapiens (Human), UniProt P14867+Q8N1C3)" assigned_category=NO
structure_smiles_string=C[C@@H]1N=C(c2c(F)cccc2F)c2c(ccc(Cl)c2Cl)-n2nc(C(=O)N3CCC3)nc21 study_system="human GABAA α1β2γ1 receptor (Homo sapiens (Human), UniProt P14867+Q8N1C3)" assigned_category=YES

====

target: human GABAA α2β2γ1 receptor (Homo sapiens (Human), UniProt P47869+Q8N1C3); test: Radioligand binding assay for γ1-containing GABAA subtypes, [3H]RO7239181 competition (α2β2γ1); conditions: Ki h-GABAA α2β2γ1, [3H]RO7239181 competition binding, human GABAA α2β2γ1
// NB: equality with 40 nM counts as Condition not met; only Ki strictly below is Condition met

compound=[2H]C([2H])([2H])OC1CN(C(=O)c2nc3n(n2)-c2ccc(Cl)c(Cl)c2C(c2ncccc2F)=N[C@H]3C)C1 assigned_category="Condition met"
compound=C[C@@H]1N=C(c2c(F)cccc2F)c2c(ccc(Cl)c2Cl)-n2nc(C(=O)N3CC(F)C3)nc21 assigned_category="Condition met"
compound=C[C@@H]1N=C(c2c(F)cccc2F)c2c(ccc(C(F)(F)F)c2Cl)-n2ncnc21 assigned_category="Condition met"
compound=C[C@@H]1N=C(c2c(F)cccc2F)c2c(ccc(Cl)c2Cl)-n2nc(C(=O)N3CC4(CCO4)C3)nc21 assigned_category="Condition met"
compound=C[C@@H]1N=C(c2c(F)cccc2F)c2c(ccc(Cl)c2Cl)-n2nc(N3CC(C#N)C3)nc21 assigned_category="Condition met"
compound=C[C@@H]1N=C(c2ncccc2F)c2c(ccc(Cl)c2Cl)-n2nc(C(=O)N3CC[C@@H](F)C3)nc21 assigned_category="Condition not met"
compound=C[C@@H]1N=C(c2c(F)cccc2F)c2c(ccc(Cl)c2Cl)-n2nc(C(=O)N3CC(CF)C3)nc21 assigned_category="Condition met"
compound=C[C@@H]1N=C(c2c(F)cccc2F)c2c(ccc(C(F)(F)F)c2Cl)-n2nc(C(=O)NN3CCCC3)nc21 assigned_category="Condition met"
compound=C[C@@H]1N=C(c2ncccc2F)c2c(ccc(C(F)(F)F)c2Cl)-n2cc(C(=O)N3CC(C(F)F)C3)nc21 assigned_category="Condition not met"
compound=C[C@@H]1N=C(c2ncccc2F)c2c(ccc(C(F)(F)F)c2Cl)-n2cc(C(=O)N3CC(C)(O)C3)nc21 assigned_category="Condition not met"
compound=C[C@@H]1N=C(c2ncccc2F)c2c(ccc(C(F)(F)F)c2Cl)-n2nc(NC(=O)NC3CC3)nc21 assigned_category="Condition not met"
compound=C[C@@H]1N=C(c2ncccc2F)c2c(ccc(C(F)(F)F)c2Cl)-n2cc(C(=O)NCC(C)(C)O)nc21 assigned_category="Condition not met"
compound=Cc1nc2n(n1)-c1ccc(Cl)c(Cl)c1C(c1c(F)cccc1F)=N[C@H]2C assigned_category="Condition met"
compound=C[C@@H]1N=C(c2ncccc2F)c2c(ccc(C(F)(F)F)c2Cl)-n2cc(C(=O)N3CC(F)C3)nc21 assigned_category="Condition not met"
compound=C[C@@H]1N=C(c2c(F)cccc2F)c2c(ccc(Cl)c2Cl)-n2nc(OC3COC3)nc21 assigned_category="Condition not met"
compound=C[C@@H]1N=C(c2c(F)cccc2F)c2c(ccc(Cl)c2Cl)-n2cc(C(=O)N3CC(C#N)C3)nc21 assigned_category="Condition met"
compound=C[C@@H]1N=C(c2c(F)cccc2F)c2c(ccc(Cl)c2Cl)-n2nc(C(=O)N3CCC3)nc21 assigned_category="Condition met"
compound=C[C@@H]1N=C(c2c(F)cccc2F)c2c(ccc(C(F)(F)F)c2Cl)-n2nc(NC(=O)N3CC(F)C3)nc21 assigned_category="Condition met"
compound=COC1CN(C(=O)c2nc3n(n2)-c2ccc(C(F)(F)F)c(Cl)c2C(c2c(F)cccc2F)=NC3)C1 assigned_category="Condition met"
compound="C[C@@H]1N=C(c2c(F)cccc2F)c2c(ccc(C(F)(F)F)c2Cl)-n2nc(NC(=O)N3C4CC3CS(=O)(=O)C4)nc21 (single isomer, unassigned)" assigned_category="Condition met"
compound=C[C@@H]1N=C(c2ncccc2F)c2c(ccc(C(F)(F)F)c2Cl)-n2nc(C(=O)N3CC4(CCO4)C3)nc21 assigned_category="Condition not met"
compound=C[C@@H]1N=C(c2c(F)cccc2F)c2c(ccc(C(F)(F)F)c2Cl)-n2nc(NC(=O)NC3COC3)nc21 assigned_category="Condition met"
compound=C[C@@H]1N=C(c2c(F)cccc2F)c2c(ccc(Cl)c2Cl)-n2nc(C#N)nc21 assigned_category="Condition not met"
compound=C[C@@H]1N=C(c2ncccc2F)c2c(ccc(C(F)(F)F)c2Cl)-n2nc(C(=O)N3CC4(CCCO4)C3)nc21 assigned_category="Condition met"
compound=C[C@@H]1N=C(c2c(F)cccc2F)c2c(ccc(Cl)c2Cl)-n2nc(C(=O)N3CC4(CCOCC4)C3)nc21 assigned_category="Condition met"
compound=C[C@@H]1N=C(c2ncccc2F)c2c(ccc(C(F)(F)F)c2Cl)-n2nc(N3CCOC3=O)nc21 assigned_category="Condition not met"
compound=C[C@@H]1N=C(c2ncccc2F)c2c(ccc(C(F)(F)F)c2Cl)-n2cc(C(=O)NC[C@@H](C)O)nc21 assigned_category="Condition not met"
